TEST NAME: yeast display, Sf9 membrane polyspecificity reagent, FACS + sequencing; frameworks hold sequencing errors
TEST READOUT: polyreactivity (PSR sort gate)

Worked cases, answers included:
1. QVQLVESGGGLVQAGGSLRLSCAASGRTFGRYAMGWYRQAPGKEREFVASMSRRGGTTYYADSVKGRFTISRDNEKNTVYLQMNSLNPEDTAVYYCNADRTVIYDYEYWGQGTQVTVSS low polyreactivity
2. QVQLVESGGGLVQAGGSLRLSCAASGFTFYYNAMGWYRQAPGKERELVASISRGTSTNYADSVKGRFTISRDNAKNTVYLQMNSLKPEDTAVYYCAAKSYSDYDYWGQGTQVTVSS low polyreactivity
3. QVQLVESGGGLVQAGGSLRLSCAASGSIFDRYAMGWYIQAPGKERELVASITWRATSTYYADSVKGRFTISRDNAKNTVYLQMNSLKPEDTAVYYCAADVPWGWWDSDFSDNYYWGQGTQVTVSS low polyreactivity
4. QVQLVESAGGLVQAGGSLRLSCAASGIIFIYYTMGWYRQAPGKERELVAVITTSGDGTYYADSVKGRFTISRDNAKNTVYFQMNSLKPEDTAVYYCAASYSTWVSSRNDYWGQGTQVTVSS low polyreactivity

// sample "QVQLVESGGGLVQAGGSLRVSCAASGLTLPPYAMGWDRQAPGKERELVAAITSGGSTNYADSVKGRFTISRDKAKNTVYLQLNSLKPEDTAVYYCAAVGRHYYVKFDFWGQGTHVTVSS" , its polyreactivity (PSR sort gate) was low polyreactivity

Sourced from the nanobody polyreactivity screen of Harvey et al. (2022)
